Assay: chemical genetic growth profiling, strain panel (AID 1159580);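 also: tested at 20 µM; growth read once vehicle control cultures reached saturation at 30 °C; 1 = growth at the plate median or of vehicle wells; lower values mean less growth of the strain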
Conditions: S. cerevisiae deletion strains, growth OD, locus YDL134C, strain PPH21, active compounds read low
About 2,000 (36%) of roughly 5,500 compounds were called active. Not shown: some 18% with an inconclusive outcome. The list shows a part of the results.
Assay Readout: normalized growth
Note: the reply should be a number with no unit written.

compound="CC1=C2CCC3C(CC[C@]4(C)C(=O)CCC34)[C@@]2(C)CCC1=O (some centres not stated)" reported_result=0.981

Input: I am curious: what normalized growth value has been reported for COc1cc2ccc(=O)oc2c2ccoc12 ?
Output: 0.964

Input: Need normalized growth, item CCN(C(=S)Nc1ccc(OC)cc1)c1ccccc1
Output: 1.01

Input: Any idea what normalized growth was measured for NC(=S)c1ccc2nonc2c1 ?
Output: 0.986

Input: Consider the compound shown here: CCCCC(=O)O[C@H]1CCC2C3CCc4cc(O)ccc4C3CC[C@@]21C (some centres not stated) What is its recorded normalized growth?
Output: 0.954

Input: For CN(C)c1nc(N(C)C)nc(N(C)C)n1 , what is its reported normalized growth?
Output: 1.01

Input: Fill blank: measured normalized growth of the compound Cc1cccc(N(C)C(=S)Oc2ccc3ccccc3c2)c1 is ____.
Output: 0.992

Input: # get_value(readout='normalized growth', item= CCC(=O)Oc1ccc(NC(=S)NCCCO)cc1 )
Output: 0.992

Input: Looking for the measured normalized growth of COc1c2occc2cc2ccc(=O)oc12 , can you help?
Output: 0.997
